All values here come from patent US8772500B2.

- tested_system: human TRPV3 (Homo sapiens, UniProt Q8NET8)
- Construct: expressed in transfected cells
- Sequence (Q8NET8 whole entry): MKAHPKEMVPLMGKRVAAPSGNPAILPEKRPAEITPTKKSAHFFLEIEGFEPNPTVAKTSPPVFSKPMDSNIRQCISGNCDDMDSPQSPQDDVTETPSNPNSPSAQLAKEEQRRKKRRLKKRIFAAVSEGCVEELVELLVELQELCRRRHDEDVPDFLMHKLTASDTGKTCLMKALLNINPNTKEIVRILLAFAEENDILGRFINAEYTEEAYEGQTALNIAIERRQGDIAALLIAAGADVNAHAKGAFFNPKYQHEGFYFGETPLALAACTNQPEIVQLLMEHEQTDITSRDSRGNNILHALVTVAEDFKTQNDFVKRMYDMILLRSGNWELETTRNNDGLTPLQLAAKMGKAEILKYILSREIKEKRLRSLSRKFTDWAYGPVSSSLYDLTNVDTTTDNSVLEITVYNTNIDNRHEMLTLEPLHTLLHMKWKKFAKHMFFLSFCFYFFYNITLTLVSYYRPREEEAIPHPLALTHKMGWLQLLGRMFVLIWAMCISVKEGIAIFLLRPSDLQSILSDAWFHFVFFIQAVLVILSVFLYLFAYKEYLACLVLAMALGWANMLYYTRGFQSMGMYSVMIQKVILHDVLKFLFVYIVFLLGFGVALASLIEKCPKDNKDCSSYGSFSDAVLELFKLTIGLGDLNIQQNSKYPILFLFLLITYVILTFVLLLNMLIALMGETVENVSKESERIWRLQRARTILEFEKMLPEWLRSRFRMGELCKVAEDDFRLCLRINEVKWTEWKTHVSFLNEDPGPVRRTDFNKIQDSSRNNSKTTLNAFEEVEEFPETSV
- assay_overview: In vitro antagonism of recombinant human TRPV3 activation (FLIPR Tetra calcium assay, 2-APB as agonist)
- Assay type: cell-based
- run_parameters: HEK293 cells stably expressing human TRPV3; 2-APB 80 μM; range class; read-out: IC50 (reported range)
pIC50: −log10 of the molar value.
attribute_measured: pIC50

Lookup: Provide measured pIC50 value, entry: OC1CC(c2cncc(C(F)(F)F)c2)(C(O)c2ccccn2)C1 (stereo not shown) [Example 304]
Found: 6.30 to 7.30

Lookup: Give a short answer stating reported pIC50 for Cl.O[C@H](c1ccccn1)C1(c2ccc(Cl)c(Cl)c2)CC(F)(F)C1 [Example 111, hydrochloride] .
Found: 6.30 to 7.30

Lookup: Supply measured pIC50 of OC(c1ccccn1)C1(c2ccc(C(F)(F)F)cc2)CC2(C1)OCCO2 (stereo not shown) [Example 161] in your reply.
Found: 5.30 to 5.96

Lookup: // Input: N[C@H]1CCC[C@H]1[C@@H](O)C1(c2ccccc2F)CCC1 [Example 226] . Output its pIC50 only.
Found: 6.00 to 6.30

Lookup: Return pIC50 (reported value) for this compound: N[C@@H]1CCC[C@H]1[C@@H](O)C1(c2ccc(OC(F)(F)F)cc2)CCC1 [Example 223]
Found: 5.30 to 5.96

Lookup: Please look at this compound and report its pIC50: OC(c1ccccn1)C1(c2ccc(C(F)(F)F)cc2)CCCO1 (stereo not shown) [Example 89]
Found: 5.30 to 5.96

Lookup: Return pIC50 for the following compound: CC(C)(C)OC(=O)N1CCC(C2(C(O)c3ccccn3)CCC2)CC1 (stereo not shown) [Example 279]
Found: 4.70 to 5.29

Lookup: Determine its reported pIC50: OC(c1ccccn1)C1(c2ccc(Oc3ccccc3)cc2)CCC1 (stereo not shown) [Example 24]
Found: 5.30 to 5.96
